A collection of compounds and their measured IC50
- System: HEL
- Test details: Concentration required to inhibit HEL cell growth by 50%
- Format: functional, cell-based
- Applied conditions: Homo sapiens

Example cases with answers are listed next.
Compound	IC50
O=C(O)CC(SCCCOC[C@H]1O[C@@H](O[C@H]2[C@H](OCCCSC(CC(=O)O)C(=O)O)[C@@H](OCCCSC(CC(=O)O)C(=O)O)C(OCCCSC(CC(=O)O)C(=O)O)O[C@@H]2COCCCSC(CC(=O)O)C(=O)O)[C@H](OCCCSC(CC(=O)O)C(=O)O)[C@@H](OCCCSC(CC(=O)O)C(=O)O)[C@@H]1OCCCSC(CC(=O)O)C(=O)O)C(=O)O (some centres not stated)	> 22 µM
O=S(=O)(O)CCSCCCOC[C@H]1O[C@@H](OCCCSCCS(=O)(=O)O)[C@H](OCCCSCCS(=O)(=O)O)[C@@H](OCCCSCCS(=O)(=O)O)[C@@H]1OCCCSCCS(=O)(=O)O	> 42 µM
O=C(O)CC(SCCCOC[C@H]1O[C@@H](OCCCSC(CC(=O)O)C(=O)O)[C@H](OCCCSC(CC(=O)O)C(=O)O)[C@@H](OCCCSC(CC(=O)O)C(=O)O)[C@@H]1OCCCSC(CC(=O)O)C(=O)O)C(=O)O (some centres not stated)	> 37 µM

Would you kindly share the measured IC50 for O=C(O)CC(SCCCOC[C@H]1O[C@@](COCCCSC(CC(=O)O)C(=O)O)(O[C@H]2O[C@H](COCCCSC(CC(=O)O)C(=O)O)[C@@H](OCCCSC(CC(=O)O)C(=O)O)[C@H](OCCCSC(CC(=O)O)C(=O)O)[C@H]2OCCCSC(CC(=O)O)C(=O)O)[C@@H](OCCCSC(CC(=O)O)C(=O)O)[C@@H]1OCCCSC(CC(=O)O)C(=O)O)C(=O)O (some centres not stated) ? > 22 µM

Would you kindly share the measured IC50 for `O=C(O)CCSCCCOC[C@H]1O[C@@](COCCCSCCC(=O)O)(O[C@H]2O[C@H](COCCCSCCC(=O)O)[C@@H](OCCCSCCC(=O)O)[C@H](OCCCSCCC(=O)O)[C@H]2OCCCSCCC(=O)O)[C@@H](OCCCSCCC(=O)O)[C@@H]1OCCCSCCC(=O)O` ? > 30 µM

Would you kindly share the measured IC50 for O=C(O)CC(SCCCOC[C@H]1O[C@@H](O[C@H]2[C@H](OCCCSC(CC(=O)O)C(=O)O)[C@@H](OCCCSC(CC(=O)O)C(=O)O)[C@@H](OCCCSC(CC(=O)O)C(=O)O)O[C@@H]2COCCCSC(CC(=O)O)C(=O)O)[C@H](OCCCSC(CC(=O)O)C(=O)O)[C@@H](OCCCSC(CC(=O)O)C(=O)O)[C@@H]1OCCCSC(CC(=O)O)C(=O)O)C(=O)O (some centres not stated) ? > 22 µM

Would you kindly share the measured IC50 for `O=S(=O)(O)CCSCCCOC[C@H]1O[C@@](COCCCSCCS(=O)(=O)O)(O[C@H]2O[C@H](COCCCSCCS(=O)(=O)O)[C@@H](OCCCSCCS(=O)(=O)O)[C@H](OCCCSCCS(=O)(=O)O)[C@H]2OCCCSCCS(=O)(=O)O)[C@@H](OCCCSCCS(=O)(=O)O)[C@@H]1OCCCSCCS(=O)(=O)O` ? > 25 µM
